The entries below come with measured relative binding affinity values attached.
SYSTEM_NAME: T1, human CD81 mutant D137A (human, UniProt P60033 1-236, limits assumed)
T1 construct: as m30; not shown: C-terminal V5 and 6xHis tags
T1 sequence: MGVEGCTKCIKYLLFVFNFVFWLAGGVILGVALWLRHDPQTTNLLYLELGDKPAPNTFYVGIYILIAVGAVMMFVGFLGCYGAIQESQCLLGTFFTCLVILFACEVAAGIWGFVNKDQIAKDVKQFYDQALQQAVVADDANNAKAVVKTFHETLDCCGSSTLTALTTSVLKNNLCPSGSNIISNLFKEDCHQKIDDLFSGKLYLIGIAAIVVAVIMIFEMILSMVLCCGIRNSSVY
ASSAY_EXPLANATION: ELISA

002-B05 (antibody, human IgG4 S228P, lambda, V domains shown, IgG4 S228P) VH: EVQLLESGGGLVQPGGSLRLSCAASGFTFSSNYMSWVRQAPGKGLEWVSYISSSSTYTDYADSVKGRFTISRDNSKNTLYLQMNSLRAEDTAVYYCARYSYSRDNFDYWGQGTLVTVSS VL: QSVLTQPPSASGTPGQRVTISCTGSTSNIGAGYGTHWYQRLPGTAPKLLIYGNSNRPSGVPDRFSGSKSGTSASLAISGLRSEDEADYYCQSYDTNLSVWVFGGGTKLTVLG = < 20%

// next entry
Identify the reported relative binding affinity for the following entry. 002-A07 N113G (antibody, human IgG4 S228P, lambda, V domains shown, IgG4 S228P; glycosylation site mutant of 002-A07 VL) VH: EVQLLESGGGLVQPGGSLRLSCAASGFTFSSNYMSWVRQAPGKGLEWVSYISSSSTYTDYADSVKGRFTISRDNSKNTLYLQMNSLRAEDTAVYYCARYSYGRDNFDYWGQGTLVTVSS VL: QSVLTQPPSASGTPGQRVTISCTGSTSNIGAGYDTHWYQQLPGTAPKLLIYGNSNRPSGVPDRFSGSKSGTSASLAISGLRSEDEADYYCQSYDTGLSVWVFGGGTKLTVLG
< 20%

Source of measurements: patent US20150139990A1
